Item-by-item account of IC50
SYSTEM_UNDER_TEST: Muscarinic acetylcholine receptor M3 (Homo sapiens, UniProt P20309)
Sequence (P20309 whole entry): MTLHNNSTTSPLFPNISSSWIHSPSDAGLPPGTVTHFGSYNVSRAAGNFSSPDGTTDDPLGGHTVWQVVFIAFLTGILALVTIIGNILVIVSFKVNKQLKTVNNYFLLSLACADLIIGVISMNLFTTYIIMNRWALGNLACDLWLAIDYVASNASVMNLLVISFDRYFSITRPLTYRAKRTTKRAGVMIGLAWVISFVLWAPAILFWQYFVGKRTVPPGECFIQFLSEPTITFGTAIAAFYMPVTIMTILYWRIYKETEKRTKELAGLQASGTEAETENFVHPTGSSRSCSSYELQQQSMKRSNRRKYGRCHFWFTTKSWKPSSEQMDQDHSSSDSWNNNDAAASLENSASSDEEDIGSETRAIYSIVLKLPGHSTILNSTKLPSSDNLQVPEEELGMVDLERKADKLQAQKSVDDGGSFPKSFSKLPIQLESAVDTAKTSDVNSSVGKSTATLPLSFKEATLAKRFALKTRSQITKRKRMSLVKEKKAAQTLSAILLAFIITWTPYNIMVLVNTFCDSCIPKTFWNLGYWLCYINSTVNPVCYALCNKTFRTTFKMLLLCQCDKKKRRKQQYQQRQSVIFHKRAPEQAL
PROTOCOL_SUMMARY: Displacement of [3H]NMS from recombinant human M3 receptor expressed in CHO-K1 cells after 16 hrs by SPA method
Form entry: value (nM) — number only.

* O=C(C[N+]12CCC(CC1)[C@@H](OC(=O)C1(C3=CC=CC3)CCCCCC1)C2)Nc1ccccc1 | 0.251

Q: Provide one value: measured IC50 of `O=C(C[N+]12CCC(CC1)[C@@H](OC(=O)C1(C3=CC=CC3)CCCCCC1)C2)Nc1ccc(Cl)nn1`
A: 0.2

Q: Provide one value: measured IC50 of `O=C(C[N+]12CCC(CC1)[C@@H](OC(=O)C1(C3=CC=CC3)CCCCCC1)C2)Nc1ccncn1`
A: 0.158

Q: Provide one value: measured IC50 of `O=C(O[C@H]1C[N+]2(CCc3ccccc3)CCC1CC2)C1(C2=CC=CC2)CCCCCC1`
A: 0.0794

Q: Provide one value: measured IC50 of `Cc1cnc(NC(=O)C[N+]23CCC(CC2)[C@@H](OC(=O)C2(C4=CC=CC4)CCCCCC2)C3)cn1`
A: 0.794

Q: Provide one value: measured IC50 of `Cc1cc(NC(=O)C[N+]23CCC(CC2)[C@@H](OC(=O)C2(C4=CC=CC4)CCCCCC2)C3)ncn1`
A: 1

Q: Provide one value: measured IC50 of `Cc1cncc(NC(=O)C[N+]23CCC(CC2)[C@@H](OC(=O)C2(C4=CC=CC4)CCCCCC2)C3)n1`
A: 0.631

Q: Provide one value: measured IC50 of `O=C(C[N+]12CCC(CC1)[C@@H](OC(=O)C1(C3=CC=CC3)CCCCCC1)C2)Nc1ccc(F)cn1`
A: 0.631

Q: Provide one value: measured IC50 of `C[N+]12CCC(CC1)[C@@H](OC(=O)C1(C3=CC=CC3)CCCCCC1)C2`
A: 2.51

Q: Provide one value: measured IC50 of `O=C(C[N+]12CCC(CC1)[C@@H](OC(=O)C1(C3=CC=CC3)CCCCCC1)C2)Nc1cncnc1`
A: 0.631

Q: Provide one value: measured IC50 of `O=C(C[N+]12CCC(CC1)[C@@H](OC(=O)C1(C3=CC=CC3)CCCCCC1)C2)Nc1ccc(C(F)(F)F)nc1`
A: 0.251
